molecular target: P450 2A6 (Homo sapiens, UniProt P11509); conditions: 10 nM P450, 2.5 µM procarcinogen, means ± range of duplicate experiments
Sequence (P11509 whole entry): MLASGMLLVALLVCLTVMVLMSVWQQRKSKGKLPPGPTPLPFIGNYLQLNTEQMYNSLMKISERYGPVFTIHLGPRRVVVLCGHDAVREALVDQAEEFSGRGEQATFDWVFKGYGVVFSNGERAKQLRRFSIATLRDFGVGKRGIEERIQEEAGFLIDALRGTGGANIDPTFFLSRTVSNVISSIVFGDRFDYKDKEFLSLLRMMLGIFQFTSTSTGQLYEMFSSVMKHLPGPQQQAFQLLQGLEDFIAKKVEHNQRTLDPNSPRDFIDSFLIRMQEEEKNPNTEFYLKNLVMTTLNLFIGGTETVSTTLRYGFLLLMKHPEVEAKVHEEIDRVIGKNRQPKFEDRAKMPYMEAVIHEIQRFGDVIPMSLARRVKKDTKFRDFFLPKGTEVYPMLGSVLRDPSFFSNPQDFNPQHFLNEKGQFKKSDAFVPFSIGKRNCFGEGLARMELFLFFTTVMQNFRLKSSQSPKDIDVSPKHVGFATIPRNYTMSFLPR
# Lookup of reported activation of procarcinogens umu gene expression keyed by entry
Measured quantity: activation of procarcinogens umu gene expression (units/min/nmol P450)

Compound	Value reported
OC1C=Cc2c(ccc3ccc4ccccc4c23)C1O (stereo not drawn) [B[c]Phe-3,4-diol]	33
Cc1cc2ccccc2c2ccc3c(c12)C=CC(O)C3O (stereo not drawn) [5MeCh-1,2-diol]	52
Nc1ccc2cc3ccccc3cc2c1 [2-AA, 2-aminoanthracene]	1200

----------
molecular target: P450 2A13 (Homo sapiens, UniProt Q16696); experiment: Spectral binding titration with purified P450 2A13; settings: P450 2A13, Type I spectra
List of ΔAmax/ Ks values.

Compound	Measured target	ΔAmax/ Ks
O=[N+]([O-])c1ccc2ccc3cccc4ccc1c2c34	P450 2A13 (Homo sapiens, UniProt Q16696)	0.24
c1ccc2c(c1)ccc1ccc3ccccc3c12 [B[c]Phe, benzo[c]phenanthrene]	P450 2A13 (Homo sapiens, UniProt Q16696)	0.045
OC1C=C2c3ccccc3-c3cccc(c32)C1O (stereo not shown) [FA-2,3-diol, 2,3-dihydroxy-2,3-dihydrofluoranthene]	P450 2A13 (Homo sapiens, UniProt Q16696)	0.060
c1cc2c3c(cccc3c1)CC2	P450 2A13 (Homo sapiens, UniProt Q16696)	0.15

----------
biological target: P450 1B1 (Homo sapiens, UniProt Q16678, L432V); experiment: Spectral binding titration with purified P450 1B1
Listed next: entries and their corresponding Kd.
Measured quantity: Kd (µM)

Compound	Measured target	Measured quantity	Result units	Op	Value reported
OC1C=Cc2c(cc3ccc4cccc5ccc2c3c45)C1O (racemic) [( ± )B[a]P-7,8-diol, 7,8-dihydroxy-7,8-dihydrobenzo[a]pyrene]	P450 1B1 (Homo sapiens, UniProt Q16678, L432V)	Kd	µM	=	6.8
c1ccc2c(c1)ccc1ccc3ccccc3c12 [B[c]Phe, benzo[c]phenanthrene]	P450 1B1 (Homo sapiens, UniProt Q16678, L432V)	Kd	µM	=	2.5
c1cc2c3c(cccc3c1)CC2	P450 1B1 (Homo sapiens, UniProt Q16678, L432V)	Kd	µM	>	20
Nc1ccc2c(c1)Cc1ccccc1-2	P450 1B1 (Homo sapiens, UniProt Q16678, L432V)	Kd	µM	=	4.6
C1=Cc2cccc3cccc1c23	P450 1B1 (Homo sapiens, UniProt Q16678, L432V)	Kd	µM	>	20
c1ccc2c(c1)ccc1c3ccccc3ccc21	P450 1B1 (Homo sapiens, UniProt Q16678, L432V)	Kd	µM	>	20
Nc1ccc2cc3ccccc3cc2c1	P450 1B1 (Homo sapiens, UniProt Q16678, L432V)	Kd	µM	=	33
Cn1c(N)nc2ncc(-c3ccccc3)cc21	P450 1B1 (Homo sapiens, UniProt Q16678, L432V)	Kd	µM	>	20
CC(=O)Nc1ccc2c(c1)Cc1ccccc1-2	P450 1B1 (Homo sapiens, UniProt Q16678, L432V)	Kd	µM	=	20
OC1C=Cc2c(ccc3c2ccc2ccccc23)C1O (centres unmarked) [chrysene-1,2-diol, 1,2-dihydroxy-1,2-dihydrochrysene]	P450 1B1 (Homo sapiens, UniProt Q16678, L432V)	Kd	µM	>	20
c1ccc2c(c1)cc1ccc3cccc4ccc2c1c34 [B[a]P, benzo[a]pyrene]	P450 1B1 (Homo sapiens, UniProt Q16678, L432V)	Kd	µM	>	20

----------
molecular target: P450 2A13 (Homo sapiens, UniProt Q16696); test: Spectral binding titration with purified P450 2A13; conditions: read-out: Ks; P450 2A13, Type I spectra; 1.0 µM P450, pH 7.4; ± SE
pKd: −log10 of the molar value.
Measured quantity: pKd

Compound	Value reported
c1ccc2cc3c(ccc4ccccc43)cc2c1 [B[a]A, benz[a]anthracene]	< 4.70

----------
Target: P450 1B1 (Homo sapiens, UniProt Q16678, L432V)
Sequence (Q16678 1-543 L432V): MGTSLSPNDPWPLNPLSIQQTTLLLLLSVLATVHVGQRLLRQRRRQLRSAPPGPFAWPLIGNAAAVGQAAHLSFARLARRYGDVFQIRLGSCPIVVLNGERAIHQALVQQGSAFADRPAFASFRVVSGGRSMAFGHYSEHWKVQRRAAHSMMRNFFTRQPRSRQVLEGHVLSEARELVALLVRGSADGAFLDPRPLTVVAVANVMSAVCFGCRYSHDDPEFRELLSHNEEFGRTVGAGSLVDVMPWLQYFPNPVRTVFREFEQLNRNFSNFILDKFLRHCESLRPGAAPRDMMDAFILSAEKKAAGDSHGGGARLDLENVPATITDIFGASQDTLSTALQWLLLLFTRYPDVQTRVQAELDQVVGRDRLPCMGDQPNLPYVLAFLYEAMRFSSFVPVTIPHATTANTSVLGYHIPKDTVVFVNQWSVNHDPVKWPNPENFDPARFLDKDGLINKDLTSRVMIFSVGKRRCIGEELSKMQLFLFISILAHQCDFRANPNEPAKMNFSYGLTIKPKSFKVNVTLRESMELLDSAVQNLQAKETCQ
Assay: Spectral binding titration with purified P450 1B1
pKd: −log10 of the molar value.
Measured quantity: pKd

Compound	Value reported
Cc1c(N)nc(C)c2c1[nH]c1ccccc12 [Trp-P-1]	< 4.70
Cc1cc2ccccc2c2ccc3c(c12)C=CC(O)C3O (stereo not drawn) [5MeCh-1,2-diol]	< 4.70
OC1C=Cc2c(ccc3ccc4ccccc4c23)C1O (stereo not drawn) [B[c]Phe-3,4-diol]	< 4.70
